Reference source for all entries: paper PMC6007377

Give measured Kd for each item. Keep answers brief.
target: TDG N140A (human, UniProt Q13569 1-410, N140A); test: fluorescence anisotropy
Sequence (Q13569 whole entry N140A): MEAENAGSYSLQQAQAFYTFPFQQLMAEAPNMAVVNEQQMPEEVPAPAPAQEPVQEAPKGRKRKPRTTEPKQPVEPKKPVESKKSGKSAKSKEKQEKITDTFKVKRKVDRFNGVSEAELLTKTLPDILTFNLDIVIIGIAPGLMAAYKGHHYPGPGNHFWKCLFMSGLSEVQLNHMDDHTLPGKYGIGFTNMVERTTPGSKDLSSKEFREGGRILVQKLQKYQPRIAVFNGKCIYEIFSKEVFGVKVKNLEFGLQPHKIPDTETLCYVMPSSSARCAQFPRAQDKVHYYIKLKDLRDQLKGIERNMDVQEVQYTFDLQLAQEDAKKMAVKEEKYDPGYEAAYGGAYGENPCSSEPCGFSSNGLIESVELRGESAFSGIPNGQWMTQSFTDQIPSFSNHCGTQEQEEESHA
One number for each entry, in nM.

G·fC 28mer (TR) (dsDNA, 5-formylcytosine at position 17 of strand 1, paired with G) DNA 1: GTGTCACCACTGCTCACGTACAGAGCTG DNA 2: CAGCTCTGTACGTGAGCAGTGGTGACAC; 4

Now consider the entry below.
[in] Which Kd value is on record for G·caC 28mer (TR) (dsDNA, 5-carboxylcytosine at position 17 of strand 1, paired with G) DNA 1: GTGTCACCACTGCTCACGTACAGAGCTG DNA 2: CAGCTCTGTACGTGAGCAGTGGTGACAC ?
[out] 2.3
